Measurement type: pIC50
The scale used: pIC50 is minus the common logarithm of the concentration in molar units.

The compound `Cn1c(=O)c(-c2c(O)cccc2O)cc2cnc(Nc3ccccc3)nc21` , tested on Wee1-like protein kinase (Homo sapiens), showed pIC50 of 4.57

The compound `Cn1c(=O)c(-c2c(Cl)cc(O)cc2Cl)cc2cnc(Nc3ccc(OCCCC(=O)O)cc3)nc21` , tested on Wee1-like protein kinase (Homo sapiens), showed pIC50 of 7.40

The compound `Cn1c(=O)c(-c2c(Cl)ccc(C(N)=O)c2Cl)cc2cnc(Nc3ccccc3)nc21` , tested on Wee1-like protein kinase (Homo sapiens), showed pIC50 of 5.07

The compound `Cn1c(=O)c(-c2c(Cl)ccc(CN)c2Cl)cc2cnc(Nc3ccccc3)nc21` , tested on Wee1-like protein kinase (Homo sapiens), showed pIC50 of 4.51
